Each recorded value in this set is attributed to PubChem BioAssay AID2060506.

System: 598228-144-R-J1-PDC complex spheroid viability;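 also: spheroids exposed to the agents for one week before reading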
ASSAY REMARKS: Anticancer human tumor 598228-144-R-J1-PDC patient-derived serous endometrial adenocarcinoma cell line growth inhibition [GQUAD]
EXPERIMENTAL CONDITIONS: second compound 10 µM; first compound 10 µM; stronger effect = lower value
Lab note: anything with viability, T/C below 30% is marked yes; values at 30% or higher are marked no.

Given COc1cc(C2c3cc4c(cc3C(OC3OC5COC(C)OC5C(O)C3O)C3COC(=O)C23)OCO4)cc(OC)c1O (stereo not given) + Cc1[nH]c2ccc(F)cc2c1-c1nc2c3cccnc3c3ncccc3c2[nH]1 , is recorded viability, T/C strictly lower than 30%?
no

Bench note: check whether COc1ncnc(C2CC2)c1-c1ncc2cnn(Cc3ccc(-c4nc(C(F)(F)F)cn4C(C)C)cc3)c2n1 + Cc1[nH]c2ccc(F)cc2c1-c1nc2c3cccnc3c3ncccc3c2[nH]1 shows viability, T/C below 30%
no

Determine if CC1COCCN1c1cc(-c2ccnn2C)c2ccnc(-c3ccn[nH]3)c2n1 (stereo not given) + Cc1[nH]c2ccc(F)cc2c1-c1nc2c3cccnc3c3ncccc3c2[nH]1 shows viability, T/C strictly lower than 30%.
no

Record C#Cc1c(F)ccc2cc(O)cc(-c3ncc4c(N5CC6CCC(C5)N6)nc(OCC56CCCN5CC(F)C6)nc4c3F)c12 (stereo not given) + Cc1cnc(CNC(=O)c2c(=O)c3ccc(N4CCCN(C)CC4)nc3n3c2sc2ccccc23)cn1 : is its viability, T/C strictly below 30%?
yes

Record CC1COCCN1c1cc(C2(O)CC3CCC(C2)O3)c2cnn(-c3ccn[nH]3)c2n1 (stereo not given) + Cc1[nH]c2ccc(F)cc2c1-c1nc2c3cccnc3c3ncccc3c2[nH]1 : is its viability, T/C strictly below 30%?
yes
